Quick reference: pKi of the listed items.
target.or.test.system: human FLAP (Homo sapiens (Human), UniProt P20292)
Sequence (P20292 whole entry): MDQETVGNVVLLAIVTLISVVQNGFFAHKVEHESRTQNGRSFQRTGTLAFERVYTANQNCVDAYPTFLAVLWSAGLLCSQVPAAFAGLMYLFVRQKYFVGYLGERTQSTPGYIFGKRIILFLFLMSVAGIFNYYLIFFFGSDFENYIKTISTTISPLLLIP
protocol.details: FLAP binding assay (HTRF format)
test.conditions: wild type FLAP, HTRF format
Protocol: The ability of the compounds of the present invention to treat a FLAP-mediated disease and/or disorder, or associated symptoms or complications thereof, was determined using the following procedures. Binding assay data represent the average value obtained from two different assay plates, with samples run in duplicate on each plate. Human whole blood assay data represent a single replicate on an assay plate using whole blood from at least one healthy donor. Data are expressed as a HTRF ratio.
Structures can show the parent of a compound that is named as a salt.
Scale note: pKi = -log10(concentration in M).

Illustrative cases are given below, each with its answer.
[[record]]
compound = "C[C@@H](O)CNS(=O)(=O)c1ccccc1-c1ccc(-c2ncc(N)nc2C#N)c(F)c1"
target_or_test_system = "human FLAP (Homo sapiens (Human), UniProt P20292)"
data_value = 7.63

[[record]]
compound = "Nc1cnc(-c2ccc(-c3cccnc3S(=O)(=O)C3CCCCC3)cc2F)cn1 [Example 808, hydrochloride]"
target_or_test_system = "human FLAP (Homo sapiens (Human), UniProt P20292)"
data_value = 9.40

[[record]]
compound = "C[C@@H](CO)NS(=O)(=O)c1ccccc1-c1ccc(-c2ncc(N)nc2C#N)c(F)c1"
target_or_test_system = "human FLAP (Homo sapiens (Human), UniProt P20292)"
data_value = 7.38

[[record]]
compound = "Nc1cnc(-c2ccc(-c3ccccc3OC3CCNCC3)cc2F)cn1"
target_or_test_system = "human FLAP (Homo sapiens (Human), UniProt P20292)"
data_value = 5.72


*Q* Reported pKi for Nc1ncc(-c2ccc(-c3ccc(C(F)(F)F)cc3O)cc2F)cn1 : what is it?
*A* 7.92

*Q* Reported pKi for Nc1cnc(-c2ccc(-c3ccccc3Oc3ccnc(C(F)(F)F)n3)cc2F)cn1 : what is it?
*A* 7.46

*Q* Reported pKi for Nc1cnc(-c2ccc(-c3ccccc3Oc3nccc(N)n3)cc2F)cn1 : what is it?
*A* 8.30

*Q* Reported pKi for N#CC1(S(=O)(=O)c2ccccc2-c2ccc(-c3cnc(N)cn3)c(F)c2)CCCC1 : what is it?
*A* 8.17

*Q* Reported pKi for N#Cc1nc(N)cnc1-c1ccc(-c2ccccc2Oc2ncccn2)cc1F : what is it?
*A* 7.57

*Q* Reported pKi for Nc1nccc(Oc2ccccc2-c2ccc(-c3cnc4[nH]ccc4c3)c(F)c2)n1 : what is it?
*A* 9.00

*Q* Reported pKi for Nc1cnc(-c2ccc(-c3ccc(C(F)(F)F)cc3C(=O)N3CCC(O)CC3)cc2F)cn1 : what is it?
*A* 8.07

*Q* Reported pKi for CCN(CC)C(=O)c1ccccc1-c1ccc(-c2cnc(N)cn2)c(F)c1 : what is it?
*A* 7.85
